Inhibitory effect (%) P. aeruginosa ATCC 27853 for assorted compounds
# Test system: P. aeruginosa ATCC 27853
# MEASUREMENT NOTES: Broth microdilution assay, P. aeruginosa
# Assay type: cell-based, Pseudomonas aeruginosa
# CONDITION PARAMETERS: 50 µM, 24 h, inhibition of growth, mean ± SD
Number first, unit second.

CC(C)C12CCC3(COC(=O)c4ccccc4)CCC4(C)C(=C31)C(CC1C3(C)CCC(OC(=O)c5ccccc5)C(C)(C)C3CCC14C)n1c(=O)n(-c3ccccc3)c(=O)n12 (stereo not drawn) [Compound 50] : 3.2±0.3%
C=C(C)[C@@H]1CC[C@]2(C(=O)OC)CC[C@]3(C)[C@H](CC[C@@H]4[C@@]5(C)CC[C@H](O)C(C)(C)[C@@H]5CC[C@]43C)[C@@H]12 [Compound 20, betulinic acid methyl ester] : 8.6±2.5%

Now for a further compound.
Request: Name the recorded Inhibitory effect (%) P. aeruginosa ATCC 27853 of the compound listed here: CC(=O)OCC12CCC3(C(C)C)C1=C1C(CC4C5(C)CCC(OC(C)=O)C(C)(C)C5CCC4(C)C1(C)CC2)n1c(=O)n(Cc2ccccc2)c(=O)n13 (stereo not drawn) [Compound 40]
Result: 1.7±0.6%
